# Read-out: CFLAR gene, CFLAR (gene 8837)
# ASSAY DETAILS: LTEA_HepaRG_CFLAR: Life Technologies and Expression Analysis (LTEA) Assay for CFLAR gene using HepaRG (AID 2283455)
# CONDITION DESCRIPTION: mRNA level, 48 h; actives raise or lower the signal
The source made the active and inactive calls. How the source made its calls: active means hit-call score of the fitted dose curve at least 0.9, where 1 is the maximum; inactive means score below 0.9.
MEASURED PROPERTY: AC50

- CCOC(=O)C(O)(c1ccc(Cl)cc1)c1ccc(Cl)cc1: inactive
- CC(C)C(=O)OCC(C)(C)C(OC(=O)C(C)C)C(C)C (configuration not stated): inactive
- C[C@]12CCC(=O)C=C1CC[C@@H]1[C@@H]2CC[C@]2(C)C(=O)CC[C@@H]12: inactive
- CCC(C)(c1ccc(O)cc1)c1ccc(O)cc1: 71.4 µM (active)
- O=C(NC(=O)c1c(F)cccc1F)Nc1cc(Cl)c(OC(F)(F)C(F)F)c(Cl)c1: inactive
- CC(c1ccc(O)cc1)(c1ccc(O)cc1)c1ccc(O)cc1: 64.5 µM (active)

// switching to the query compound
Entry O=C(O)C(F)(F)C(F)(F)C(F)(F)C(F)(F)C(F)(F)C(F)(F)C(F)(F)C(F)(F)F — recorded AC50 = inactive

---

# TARGET OR TEST SYSTEM: guinea pig Serotonin, 5-Hydroxytryptamine Receptor 4 (5HT4), HTR4 (gene 100135548)
# ASSAY DETAILS: NVS_GPCR_g5HT4: NovaScreen (NVS) G Protein-Coupled Receptor Assay for guinea pig Serotonin, 5-Hydroxytryptamine Receptor 4 (5HT4) (AID 2283294)
Inconclusive results are not listed. Active and inactive are the calls of the source. The calls were made as follows: active = hit-call score of the fitted dose curve at least 0.9, where 1 is the maximum; inconclusive = response in the unintended direction; inactive = score below 0.9.
A correct response names exactly one class from active, inactive

Problem: Which outcome was entered for the compound COc1ccc(O)c(C(C)(C)C)c1 in this test?
Result: active

Problem: Give the logged outcome of this assay for the following compound: CC1=C2C[C@H]3[C@@H](CC=C4C[C@@H](O)CC[C@@]43C)[C@@H]2CC[C@]12O[C@@H]1C[C@H](C)CN[C@H]1[C@H]2C
Result: inactive

Problem: Could you check what this test reported for CC(C)(c1ccccc1)c1ccc(O)cc1 ?
Result: active

Problem: Hello, I am checking results. What call was entered for CCC(C)(c1ccc(O)cc1)c1ccc(O)cc1 ?
Result: active

Problem: What outcome does the record of this test show for Oc1ccc(C(c2ccc(O)cc2)(C(F)(F)F)C(F)(F)F)cc1 ?
Result: active

---

# Read-out: Tissue plasminogen activator (tPA), PLAT (gene 5327)
# ASSAY DETAILS: BSK_BE3C_tPA: BioMAP Diversity Plus: BE3C Assay for Tissue plasminogen activator (tPA) Biomarker Activity (AID 2283041);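 on outcome: tPA level quantified by ELISA one day after compound addition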
# CONDITION DESCRIPTION: primary human bronchial epithelial cells; actives raise or lower the signal
Activity calls are given as the source filed them. How the source made its calls: active means hit-call score of the fitted dose curve at least 0.9, where 1 is the maximum; inactive means score below 0.9.
In this exercise, the only acceptable responses are y = active, n = inactive

Problem: Per the assay record, what outcome was assigned to Cc1ccccc1[N+](=O)[O-] ?
Result: n

Problem: For CCOCCOC(C)=O , what call appears in the results of this test?
Result: n

Problem: Outcome? O=C(N[C@H]1CN2CCC1CC2)c1cc2ccoc2cn1
Result: n

Problem: Kindly provide the recorded test outcome for the following compound: CC(C)(c1ccccc1)c1ccc(O)cc1
Result: y

Problem: Which result was noted for this compound in the test: C1CC2OC2CC1C1CO1 (configuration not stated)
Result: n

Problem: Give the logged outcome of this assay for the following compound: CCSC(=O)N(CC)C1CCCCC1
Result: n

Problem: Which outcome was entered for the compound ClC1=C(Cl)[C@]2(Cl)[C@@H]3[C@@H](Cl)[C@H]4O[C@H]4[C@@H]3C1(Cl)C2(Cl)Cl in this test?
Result: n

Problem: Give the logged outcome of this assay for the following compound: CC(c1ccc(O)cc1)(c1ccc(O)cc1)c1ccc(O)cc1
Result: y

Problem: # lookup: test call for Nn1cnnc1
Result: n

Problem: Just curious, what result did Cc1ccc(O)c(C)c1 get here?
Result: n

Problem: Would you mind telling me which call this test gave O=S(=O)(O)C(F)(F)C(F)(F)C(F)(F)C(F)(F)F ?
Result: n

Problem: // param item: O=C(NC(=O)c1c(F)cccc1F)Nc1cc(Cl)c(OC(F)(F)C(F)F)c(Cl)c1 ; yields the recorded call
Result: n

Problem: Test call for this compound, please: N#Cc1ccc(N(CC(N)=O)CC(F)(F)F)cc1C(F)(F)F
Result: n

Problem: // param item: c1ccc(-c2ccccc2)cc1 ; yields the recorded call
Result: n

Problem: Hello, I am checking results. What call was entered for Cc1ccccc1O ?
Result: n

Problem: What did this assay record as the result for ClC1=C(Cl)[C@]2(Cl)[C@@H]3[C@H]4C[C@H]([C@@H]5O[C@H]45)[C@@H]3[C@@]1(Cl)C2(Cl)Cl ?
Result: n

Problem: Any idea what this test logged for CN(C)CCO ?
Result: n

Problem: What did the test return for O=NN(c1ccccc1)c1ccccc1 ?
Result: n

Problem: So what was the verdict on CCC(=O)O[C@H]1CC[C@H]2[C@@H]3CCC4=CC(=O)CC[C@]4(C)[C@H]3CC[C@]12C in this test?
Result: n

Problem: Identify the outcome logged in this assay for the compound shown: Cc1cc(-c2ccc(N)c(C)c2)ccc1N
Result: n

Problem: Please share the test call associated with CN(C)c1nc(=O)n(C2CCCCC2)c(=O)n1C .
Result: n

Problem: Field: outcome | Entry: CCCCCCOC(=O)c1ccccc1C(=O)OCCCCCC
Result: n

Problem: I'd appreciate the recorded outcome for Cc1cc(O)ccc1Cl from this test.
Result: n

Problem: Recorded test call requested for CCCCCCCCOC(=O)c1ccccc1C(=O)OCCCCCCCC
Result: n

Problem: Which outcome was entered for the compound Oc1ccc(C(c2ccc(O)cc2)(C(F)(F)F)C(F)(F)F)cc1 in this test?
Result: y

Problem: I'd appreciate the recorded outcome for CC#Cc1cc(C)nc(Nc2ccccc2)n1 from this test.
Result: n

Problem: Record lookup: outcome of this test for Oc1ccc(Cl)cc1Cl ?
Result: n
